# ASSAYED TARGET: tau aggregates (Homo sapiens, UniProt P10636)
# Construct: tissue sections (20 μm) from human AD brain; from tissue; host or cells: human AD brain tissue sections (20 μm)
# Sequence (P10636 1-441 isoform P10636-8): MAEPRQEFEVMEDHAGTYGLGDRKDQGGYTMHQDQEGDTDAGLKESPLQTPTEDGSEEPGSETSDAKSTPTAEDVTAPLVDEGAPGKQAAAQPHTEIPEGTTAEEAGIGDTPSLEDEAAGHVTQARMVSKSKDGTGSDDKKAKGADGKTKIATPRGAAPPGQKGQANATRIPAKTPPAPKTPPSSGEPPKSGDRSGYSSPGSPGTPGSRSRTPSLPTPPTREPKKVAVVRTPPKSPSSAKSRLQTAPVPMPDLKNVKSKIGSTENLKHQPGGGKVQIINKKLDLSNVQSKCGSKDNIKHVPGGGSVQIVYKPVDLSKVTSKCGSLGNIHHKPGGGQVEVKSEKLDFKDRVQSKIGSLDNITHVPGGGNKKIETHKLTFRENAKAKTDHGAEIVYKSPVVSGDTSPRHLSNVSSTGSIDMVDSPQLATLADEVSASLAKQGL
# ASSAY SUMMARY: Compound and antibody AT100 double staining of AD brain tissue sections
# Format: binding
# MEASUREMENT SETUP: signal of tau antibody AT-100 in the section stained with 100 nM of the compound
MEASUREMENT LABEL: Fluorescence from AT-100 observed

Here is how some molecules turned out for Fluorescence from AT-100 observed.
COC(=O)c1ccc(-c2ccc(/C=C/c3sc4ccccc4[n+]3C)s2)s1.[I-]    yes
CC[n+]1c(/C=C/c2ccc(-c3ccc(I)s3)s2)sc2ccccc21    yes
CC[n+]1c(/C=C/c2ccc(-c3ccc(C(=O)OC)[se]3)s2)sc2ccccc21.[I-]    yes
CC[n+]1c(/C=C/c2ccc(-c3ccc(OC)s3)s2)sc2ccccc21.[I-]    yes
CC[n+]1c(/C=C/c2ccc(-c3ccc(C(=O)OC)[se]3)s2)[se]c2ccc(OC)cc21.[I-]    yes
CC[n+]1c(/C=C/c2ccc(-c3ccc4ncsc4c3)s2)sc2ccccc21.[I-]    yes

Enquiry: Kindly state the measured Fluorescence from AT-100 observed obtained for CC[n+]1c(/C=C/c2ccc(-c3ccc[se]3)s2)[se]c2ccc(OC)cc21.[I-] with tau aggregates (Homo sapiens, UniProt P10636).
Return: yes

====

# ASSAYED TARGET: Aβ aggregates (Homo sapiens)
# Construct: compound and antibody double staining of Aβ or tau aggregates; from tissue; host or cells: human AD brain tissue sections (20 μm)
# Sequence (P05067 672-713 limits assumed): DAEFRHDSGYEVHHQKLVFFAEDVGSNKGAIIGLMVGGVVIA
# ASSAY SUMMARY: Compound and antibody 4G8 double staining of AD brain tissue sections
# Type: binding
# MEASUREMENT SETUP: signal of Aβ antibody 4G8 in the section stained with 100 nM of the compound
MEASUREMENT LABEL: Fluorescence from 4G8 observed

COC(=O)c1csc(-c2ccc(-c3ccc(-c4nc5ccccc5s4)s3)s2)c1 [Comparative Example 4]    yes
COC(=O)c1ccc(-c2ccc(/C=C/c3sc4ccccc4[n+]3C)s2)s1.[I-] [Example Compound 3f]    yes
CC[n+]1c(/C=C/c2ccc(-c3ccc(OC)s3)s2)sc2ccccc21.[I-] [Example Compound 3h]    yes
CC[n+]1c(/C=C/c2cnc(-c3ccc(C(=O)OC)s3)s2)sc2ccccc21.[I-] [Example Compound 3j]    yes
CC[n+]1c(/C=C/c2ccc(-c3ccc(C(=O)OC)s3)s2)sc2ccc(O)cc21.[I-] [Example Compound 3u]    yes

Lab note: next compound to report on.
Enquiry: Which Fluorescence from 4G8 observed value belongs to CC[n+]1c(/C=C/c2ccc(-c3cccc4nsnc34)s2)sc2ccccc21.[I-] [Example Compound 3o] ?
Return: yes

====

# ASSAYED TARGET: Aβ aggregates (Homo sapiens)
# Construct: compound and antibody double staining of Aβ or tau aggregates; from tissue; host or cells: human AD brain tissue sections (20 μm)
# ASSAY SUMMARY: Compound and antibody 4G8 double staining of AD brain tissue sections
# Assay type: binding
# MEASUREMENT SETUP: 100 nM compound, human AD brain tissue sections, double staining with Aβ antibody 4G8
MEASUREMENT LABEL: Fluorescence from tested compound observed

O=C(O)Cc1cc(-c2ccc(-c3nc4ccccc4s3)s2)sc1-c1cc(C(=O)O)cs1 [Comparative Example 3]    yes
CC[n+]1c(/C=C/c2ccc(-c3ccc(CC(=O)OC)s3)s2)sc2ccccc21.[I-] [Example Compound 3d]    yes
CC[n+]1c(/C=C/c2ccc(-c3ccc(I)s3)s2)sc2ccccc21 [Example Compound 3b]    yes
COC(=O)Cc1cc(-c2ccc(-c3nc4ccccc4s3)s2)sc1-c1cc(C(=O)OC)cs1 [Comparative Example 2]    no
